Molecular target: T1, K659E/K754E (Drosophila melanogaster, UniProt Q9W1K4 512-819, K659E;K754E)
T1 sequence: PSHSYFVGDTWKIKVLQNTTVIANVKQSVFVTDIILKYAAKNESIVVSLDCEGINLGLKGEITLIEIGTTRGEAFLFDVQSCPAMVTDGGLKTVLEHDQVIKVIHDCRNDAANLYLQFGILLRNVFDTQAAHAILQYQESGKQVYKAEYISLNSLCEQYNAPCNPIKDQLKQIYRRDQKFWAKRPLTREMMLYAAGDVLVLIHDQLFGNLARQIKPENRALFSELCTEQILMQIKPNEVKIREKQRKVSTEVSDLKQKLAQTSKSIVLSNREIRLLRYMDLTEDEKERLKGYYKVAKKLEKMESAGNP
Experiment: fluorescence anisotropy; FA: 20 mM HEPES-NaOH pH 7.5, 100 mM NaCl, 10% glycerol, 20 C, 10 nM FAM-RNA; competition: 150 nM Egl512-819 + 10 nM FAM-K10 TLS, same buffer
Settings: protein: recombinant; tags: N-terminal GST; label: 5'-6-FAM; hairpin with two bulges
MEASURED_PARAMETER: Kd
# output: numeric value plus its unit

# Kd lookup, item CUUGAUUGUAUUUUUAAAUUAAUUCUUAAAAACUACAAAUUAAG (structured_RNA) [K10 TLS (FAM)]
433 nM
